target.entity: soluble recombinant α5β1 integrin (R&D Systems) (UniProt P08648 42-995; P05556 21-728)
Sequence (P08648 42-995, chain 1 of 2): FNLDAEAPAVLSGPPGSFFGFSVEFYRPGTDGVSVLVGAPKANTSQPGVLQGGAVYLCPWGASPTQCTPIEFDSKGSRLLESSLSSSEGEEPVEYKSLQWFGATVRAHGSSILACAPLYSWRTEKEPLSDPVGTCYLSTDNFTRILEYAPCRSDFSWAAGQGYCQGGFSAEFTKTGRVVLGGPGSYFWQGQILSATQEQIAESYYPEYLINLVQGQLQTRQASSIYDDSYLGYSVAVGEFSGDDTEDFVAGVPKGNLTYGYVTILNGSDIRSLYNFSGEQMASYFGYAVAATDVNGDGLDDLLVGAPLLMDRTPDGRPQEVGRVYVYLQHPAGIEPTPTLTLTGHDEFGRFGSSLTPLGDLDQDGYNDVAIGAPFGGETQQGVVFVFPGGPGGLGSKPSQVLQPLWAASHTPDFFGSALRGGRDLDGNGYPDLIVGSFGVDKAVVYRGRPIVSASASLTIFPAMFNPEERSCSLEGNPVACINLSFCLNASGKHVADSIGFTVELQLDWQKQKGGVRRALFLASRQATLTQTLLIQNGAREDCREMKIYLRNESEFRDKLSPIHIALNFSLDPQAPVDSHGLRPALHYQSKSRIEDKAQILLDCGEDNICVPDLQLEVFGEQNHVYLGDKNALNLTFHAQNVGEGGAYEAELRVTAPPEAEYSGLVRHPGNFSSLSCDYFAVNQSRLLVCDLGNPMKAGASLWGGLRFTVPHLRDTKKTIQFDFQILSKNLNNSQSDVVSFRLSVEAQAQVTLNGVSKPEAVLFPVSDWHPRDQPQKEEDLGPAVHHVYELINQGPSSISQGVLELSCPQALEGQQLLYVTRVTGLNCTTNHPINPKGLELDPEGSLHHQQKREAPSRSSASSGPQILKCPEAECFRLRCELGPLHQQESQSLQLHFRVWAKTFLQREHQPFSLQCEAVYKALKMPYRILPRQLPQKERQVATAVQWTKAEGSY
Sequence (P05556 21-728, chain 2 of 2): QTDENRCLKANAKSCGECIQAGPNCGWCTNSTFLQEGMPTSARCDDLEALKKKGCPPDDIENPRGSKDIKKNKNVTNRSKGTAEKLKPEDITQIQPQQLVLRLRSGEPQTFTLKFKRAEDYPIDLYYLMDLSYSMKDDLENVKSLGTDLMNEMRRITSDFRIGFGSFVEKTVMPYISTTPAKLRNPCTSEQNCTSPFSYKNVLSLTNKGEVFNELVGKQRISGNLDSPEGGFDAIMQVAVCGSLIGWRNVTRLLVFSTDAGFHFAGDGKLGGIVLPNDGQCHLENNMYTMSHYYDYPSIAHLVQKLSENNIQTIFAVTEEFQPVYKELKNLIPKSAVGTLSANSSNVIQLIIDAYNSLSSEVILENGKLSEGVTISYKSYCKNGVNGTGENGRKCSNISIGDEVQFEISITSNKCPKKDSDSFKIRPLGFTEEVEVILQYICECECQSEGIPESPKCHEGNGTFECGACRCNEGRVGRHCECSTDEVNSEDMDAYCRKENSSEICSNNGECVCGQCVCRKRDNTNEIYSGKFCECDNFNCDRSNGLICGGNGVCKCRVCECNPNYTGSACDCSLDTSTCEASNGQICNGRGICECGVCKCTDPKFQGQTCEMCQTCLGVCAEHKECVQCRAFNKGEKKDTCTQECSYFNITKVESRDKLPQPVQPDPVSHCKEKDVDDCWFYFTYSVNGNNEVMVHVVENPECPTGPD
parameter: Kd (nM)
Answer format: numeric, nM implied, no suffix.

// query Kd value for entry Contortrostatin (CN), native, purified from Agkistrodon contortrix contortrix venom (ligand) DAPANPCCDAATCKLTTGSQCADGLCCDQCKFMKEGTVCRRARGDDLDDYCNGISAGCPRNPFH 191
